TEST_DETAILS: Plasma level of ciclesonide and C21-C21-desisobutyrylciclesonide (HPLC-MS/MS), 2nd ciclesonide study
EXPERIMENTAL_PARAMETERS: horse, plasma, inhaled, 2700 μg/horse, Ciclesonide concentration (plasma), ciclesonide 2700 μg A (nozzle A) twice daily per inhalation; day 11; 30 min
MEASUREMENT_NAME: concentration at 30 min (nM)
Give bare numbers, in nM.

Asked: Requested read-out: concentration at 30 min. Entry: CC(C)C(=O)OCC(=O)[C@@]12O[C@H](C3CCCCC3)O[C@@H]1C[C@H]1[C@@H]3CCC4=CC(=O)C=C[C@]4(C)[C@H]3[C@@H](O)C[C@@]12C [ciclesonide]
Given back: 0.63

###

TEST_DETAILS: Plasma level of ciclesonide and C21-C21-desisobutyrylciclesonide (HPLC-MS/MS), 2nd ciclesonide study
EXPERIMENTAL_PARAMETERS: horse, plasma, inhaled, 2700 μg/horse, Ciclesonide concentration (plasma), ciclesonide 2700 μg B (nozzle B) twice daily per inhalation; day 11; 1 h
MEASUREMENT_NAME: concentration at 1 h

Asked: Requested read-out: concentration at 1 h. Entry: CC(C)C(=O)OCC(=O)[C@@]12O[C@H](C3CCCCC3)O[C@@H]1C[C@H]1[C@@H]3CCC4=CC(=O)C=C[C@]4(C)[C@H]3[C@@H](O)C[C@@]12C [ciclesonide]
Given back: < 0.5 nM

###

TEST_DETAILS: Plasma level of ciclesonide and C21-C21-desisobutyrylciclesonide (HPLC-MS/MS), 2nd ciclesonide study
EXPERIMENTAL_PARAMETERS: horse, plasma, inhaled, 2700 μg/horse, Ciclesonide concentration (plasma), ciclesonide 2700 μg B (nozzle B) twice daily per inhalation; day 11; 10 min
MEASUREMENT_NAME: concentration at 10 min
Please answer using the number first and the unit second.

Asked: Requested read-out: concentration at 10 min. Entry: CC(C)C(=O)OCC(=O)[C@@]12O[C@H](C3CCCCC3)O[C@@H]1C[C@H]1[C@@H]3CCC4=CC(=O)C=C[C@]4(C)[C@H]3[C@@H](O)C[C@@]12C [ciclesonide]
Given back: 1.38 nM

###

TEST_DETAILS: Plasma level of ciclesonide and C21-C21-desisobutyrylciclesonide (HPLC-MS/MS), 2nd ciclesonide study
EXPERIMENTAL_PARAMETERS: horse, plasma, inhaled, 2700 μg/horse, Ciclesonide concentration (plasma), ciclesonide 2700 μg A (nozzle A) twice daily per inhalation; day 11; 2 h
MEASUREMENT_NAME: concentration at 2 h

Asked: Requested read-out: concentration at 2 h. Entry: CC(C)C(=O)OCC(=O)[C@@]12O[C@H](C3CCCCC3)O[C@@H]1C[C@H]1[C@@H]3CCC4=CC(=O)C=C[C@]4(C)[C@H]3[C@@H](O)C[C@@]12C [ciclesonide]
Given back: < 0.5 nM

###

TEST_DETAILS: Plasma level of ciclesonide and C21-C21-desisobutyrylciclesonide (HPLC-MS/MS), 2nd ciclesonide study
EXPERIMENTAL_PARAMETERS: horse, plasma, inhaled, 2700 μg/horse, Ciclesonide concentration (plasma), ciclesonide 2700 μg A (nozzle A) twice daily per inhalation; day 11; 10 min
MEASUREMENT_NAME: concentration at 10 min
Please answer using the number first and the unit second.

Asked: Requested read-out: concentration at 10 min. Entry: CC(C)C(=O)OCC(=O)[C@@]12O[C@H](C3CCCCC3)O[C@@H]1C[C@H]1[C@@H]3CCC4=CC(=O)C=C[C@]4(C)[C@H]3[C@@H](O)C[C@@]12C [ciclesonide]
Given back: 1.02 nM
